# Experimental system: T1, CRBN, Q96SW2;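 also: pooled lentiviral library of zinc finger degron-EGFP fusions in mCherry-positive Jurkat cells, FACS-sorted after compound exposure, with degron abundance counted by next-generation sequencing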
# T1 chain: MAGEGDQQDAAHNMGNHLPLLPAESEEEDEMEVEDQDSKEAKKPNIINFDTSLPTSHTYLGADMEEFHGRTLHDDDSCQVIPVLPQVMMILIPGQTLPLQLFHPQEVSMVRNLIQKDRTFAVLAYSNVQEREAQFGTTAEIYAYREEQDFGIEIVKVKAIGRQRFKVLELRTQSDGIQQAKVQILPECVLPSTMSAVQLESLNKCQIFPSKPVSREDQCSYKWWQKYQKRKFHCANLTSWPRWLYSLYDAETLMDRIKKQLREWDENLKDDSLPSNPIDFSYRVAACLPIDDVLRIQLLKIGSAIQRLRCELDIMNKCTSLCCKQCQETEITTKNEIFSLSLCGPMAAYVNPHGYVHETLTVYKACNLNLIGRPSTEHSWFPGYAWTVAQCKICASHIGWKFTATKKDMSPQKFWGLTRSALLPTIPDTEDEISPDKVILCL
# Test: log2 fold change of degron read counts, EGFP-low vs EGFP+ sorted cells (limma voom), compound-induced degradation; higher = more compound-induced degradation of the degron-EGFP fusion; degrons are variants of IKZF1/3 zinc finger 2; compound dose not given here
# Test context: Jurkat; 18 h; compound: compound 33 (diphenyl IMiD analogue)
In all, about 8,300 sequences were measured (“log2 fold change of degron read counts, EGFP-low vs EGFP+ sorted cells (limma voom), compound-induced degradation”: median about -1.1, highest 2% from about 3.2 on). Shown is part of a subset that was picked to be rich in the highest values.
Measured parameter: log2 fold change of degron read counts
Write the number on its own, no unit after it.

Reported log2 fold change of degron read counts of FFCSVCGHPFTQKGNLLRHIKL [46F_47F_49S_50V_52G_53H_54P_55F_67L_, Q9UKT9] : -1.56

Reported log2 fold change of degron read counts of FFCNQCGRTFTQKGNLLRHIKL [46F_47F_49N_50Q_52G_53R_54T_55F_67L_, Q9UKT9] : -2.54

Reported log2 fold change of degron read counts of LACEICGFMCTQKGNLLRHIKL [46L_47A_49E_50I_52G_53F_54M_55C_67L_, Q9UKT9] : 0.0952

Reported log2 fold change of degron read counts of LYCEICGFMCTQKGNLLRHIKL [46L_47Y_49E_50I_52G_53F_54M_55C_67L_, Q9UKT9] : 2.53

Reported log2 fold change of degron read counts of FECNQCGRHFTQKGNLLRHIKL [46F_47E_49N_50Q_52G_53R_54H_55F_67L_, Q9UKT9] : -3.78

Reported log2 fold change of degron read counts of LICEICGFRCTQKGNLLRHIKL [46L_47I_49E_50I_52G_53F_54R_55C_67L_, Q9UKT9] : 1.57

Reported log2 fold change of degron read counts of FACEICGHNFTQKGNLLRHIKL [46F_47A_49E_50I_52G_53H_54N_55F_67L_, Q9UKT9] : -3.22

Reported log2 fold change of degron read counts of FNCDICGAWFTQKGNLLRHIKL [46F_47N_49D_50I_52G_53A_54W_55F_67L_, Q9UKT9] : -2.22

Reported log2 fold change of degron read counts of FRCSVCGHFFTQKGNLLRHIKL [46F_47R_49S_50V_52G_53H_54F_55F_67L_, Q9UKT9] : -2.44

Reported log2 fold change of degron read counts of FYCPICGHNFTQKGNLLRHIKL [46F_47Y_49P_50I_52G_53H_54N_55F_67L_, Q9UKT9] : -0.993

Reported log2 fold change of degron read counts of FCCEQCGAMFTQKGNLLRHIKL [46F_47C_49E_50Q_52G_53A_54M_55F_67L_, Q9UKT9] : -0.276

Reported log2 fold change of degron read counts of LQCEICGFFCTQKGNLLRHIKL [46L_47Q_49E_50I_52G_53F_54F_55C_67L_, Q9UKT9] : 0.554

Reported log2 fold change of degron read counts of FECPQCGAFFTQKGNLLRHIKL [46F_47E_49P_50Q_52G_53A_54F_55F_67L_, Q9UKT9] : -1.82

Reported log2 fold change of degron read counts of FYCNICGAVFTQKGNLLRHIKL [46F_47Y_49N_50I_52G_53A_54V_55F_67L_, Q9UKT9] : 1.47

Reported log2 fold change of degron read counts of FMCPVCGAVFTQKGNLLRHIKL [46F_47M_49P_50V_52G_53A_54V_55F_67L_, Q9UKT9] : 1.97

Reported log2 fold change of degron read counts of LYCEICGFICTQKGNLLRHIKL [46L_47Y_49E_50I_52G_53F_54I_55C_67L_, Q9UKT9] : 2.2

Reported log2 fold change of degron read counts of FGCPVCGAVFTQKGNLLRHIKL [46F_47G_49P_50V_52G_53A_54V_55F_67L_, Q9UKT9] : 2.72

Reported log2 fold change of degron read counts of FKCNICGAVFTQKGNLLRHIKL [46F_47K_49N_50I_52G_53A_54V_55F_67L_, Q9UKT9] : -2.59

Reported log2 fold change of degron read counts of LACEICGFICTQKGNLLRHIKL [46L_47A_49E_50I_52G_53F_54I_55C_67L_, Q9UKT9] : -0.53

Reported log2 fold change of degron read counts of FMCEICGRNFTQKGNLLRHIKL [46F_47M_49E_50I_52G_53R_54N_55F_67L_, Q9UKT9] : -0.582
